B1: ZNF232 (parent)
chain: HSGEKPFICKECGKAYGWCSELIR

Variants of: B1
protocolSummary: protein stability index of a GFP-peptide fusion (GPS, HEK-293T) (PSI 1-6); higher = more stable;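 note: lentivirally expressed fusions sorted by FACS into six bins by GFP to DsRed ratio, PSI derived from sequencing read proportions per bin multiplied by bin number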
assayConditions: c terminus: a fixed tail appended
Class Satisfied: protein stability index at least 2. Class Not satisfied: protein stability index below 2.

{"columns": ["variantDesignation", "assignedLabel"],
 "data": [
  ["Y16D", "Satisfied"],
  ["C19Y", "Not satisfied"],
  ["E21N", "Not satisfied"],
  ["E21S", "Not satisfied"],
  ["R24S", "Satisfied"],
  ["K10W", "Not satisfied"],
  ["L22I", "Not satisfied"],
  ["A15S", "Satisfied"],
  ["G17L", "Not satisfied"],
  ["A15N", "Not satisfied"],
  ["A15I", "Satisfied"],
  ["G13F", "Not satisfied"],
  ["C9I", "Satisfied"],
  ["H1Q", "Satisfied"],
  ["G17C", "Satisfied"],
  ["C19E", "Satisfied"],
  ["R24M", "Not satisfied"],
  ["K14H", "Not satisfied"],
  ["H1I", "Satisfied"],
  ["K14N", "Not satisfied"],
  ["L22Q", "Not satisfied"]
]}
